Where these numbers come from: paper PMC10709440

Recorded measurements of activation at 10 µM, one per entry
Target: Drosophila OR98a (Drosophila melanogaster, UniProt Q9VAZ3)
Construct: expressed in transfected cells
Sequence (Q9VAZ3 1-397): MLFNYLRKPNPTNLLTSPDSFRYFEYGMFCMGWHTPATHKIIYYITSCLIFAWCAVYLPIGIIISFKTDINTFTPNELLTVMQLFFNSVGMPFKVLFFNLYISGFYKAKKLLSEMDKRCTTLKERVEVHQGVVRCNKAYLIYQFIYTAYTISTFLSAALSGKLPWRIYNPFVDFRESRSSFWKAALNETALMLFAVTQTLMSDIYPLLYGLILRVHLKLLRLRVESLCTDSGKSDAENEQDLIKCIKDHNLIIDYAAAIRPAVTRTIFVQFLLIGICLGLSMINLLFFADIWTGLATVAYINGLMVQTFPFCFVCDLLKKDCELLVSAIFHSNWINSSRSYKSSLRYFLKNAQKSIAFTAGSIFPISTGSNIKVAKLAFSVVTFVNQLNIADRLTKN
Sequence (Q9VNB5 1-486 partner): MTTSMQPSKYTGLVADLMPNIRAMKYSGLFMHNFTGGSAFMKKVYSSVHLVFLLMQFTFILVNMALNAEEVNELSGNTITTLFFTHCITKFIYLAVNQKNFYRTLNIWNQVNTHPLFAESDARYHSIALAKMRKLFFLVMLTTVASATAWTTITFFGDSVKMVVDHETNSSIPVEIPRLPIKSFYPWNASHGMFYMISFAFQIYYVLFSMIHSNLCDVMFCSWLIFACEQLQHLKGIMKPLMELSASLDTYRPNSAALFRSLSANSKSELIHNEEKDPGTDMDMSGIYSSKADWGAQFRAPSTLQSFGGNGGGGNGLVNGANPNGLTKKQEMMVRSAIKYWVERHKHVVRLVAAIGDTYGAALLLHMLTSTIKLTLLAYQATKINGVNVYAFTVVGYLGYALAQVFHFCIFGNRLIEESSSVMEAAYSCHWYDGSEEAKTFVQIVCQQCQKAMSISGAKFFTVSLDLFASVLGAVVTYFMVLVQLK
Test: Calcium ion fluorescence (GCaMP6) assay, OR98a stable HEK293 cell line;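 note: ligand concentrations in µM final VOC concentration in well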
Format: cell-based
Details: HEK293, read-out: Average response
Measurement type: activation at 10 µM (%)

[[record]]
molecule = "Cc1ccc(C(C)C)cc1"
target_system = "Drosophila OR98a (Drosophila melanogaster, UniProt Q9VAZ3)"
uom = "%"
reading = 4

[[record]]
molecule = "COC(=O)c1ccccc1 [methyl benzoate]"
target_system = "Drosophila OR98a (Drosophila melanogaster, UniProt Q9VAZ3)"
uom = "%"
reading = 0

[[record]]
molecule = "C=C1CCC2(C(C)C)CC12 (stereo not shown)"
target_system = "Drosophila OR98a (Drosophila melanogaster, UniProt Q9VAZ3)"
uom = "%"
reading = 10

[[record]]
molecule = "CCCOC(C)=O [propyl acetate]"
target_system = "Drosophila OR98a (Drosophila melanogaster, UniProt Q9VAZ3)"
uom = "%"
reading = 8

[[record]]
molecule = "C=CCc1ccc(O)c(OC)c1"
target_system = "Drosophila OR98a (Drosophila melanogaster, UniProt Q9VAZ3)"
uom = "%"
reading = 0

[[record]]
molecule = "CCCCCCCO"
target_system = "Drosophila OR98a (Drosophila melanogaster, UniProt Q9VAZ3)"
uom = "%"
reading = 5

[[record]]
molecule = "CC1=CC[C@@H](C(C)(C)O)CC1"
target_system = "Drosophila OR98a (Drosophila melanogaster, UniProt Q9VAZ3)"
uom = "%"
reading = 1.81

[[record]]
molecule = "CC(=O)OCCC(C)C [isopentyl acetate]"
target_system = "Drosophila OR98a (Drosophila melanogaster, UniProt Q9VAZ3)"
uom = "%"
reading = 2.22

[[record]]
molecule = "CC/C=C\\CCOC(C)=O [z3-hexenyl acetate]"
target_system = "Drosophila OR98a (Drosophila melanogaster, UniProt Q9VAZ3)"
uom = "%"
reading = 1.43

[[record]]
molecule = "C=Cc1ccccc1"
target_system = "Drosophila OR98a (Drosophila melanogaster, UniProt Q9VAZ3)"
uom = "%"
reading = 0

[[record]]
molecule = "CC1=CCC2C(C1)C2(C)C (stereo not shown)"
target_system = "Drosophila OR98a (Drosophila melanogaster, UniProt Q9VAZ3)"
uom = "%"
reading = 1.26

[[record]]
molecule = "CCCC(O)CC (stereo not shown)"
target_system = "Drosophila OR98a (Drosophila melanogaster, UniProt Q9VAZ3)"
uom = "%"
reading = 19

[[record]]
molecule = "CCCCCC(C)=O"
target_system = "Drosophila OR98a (Drosophila melanogaster, UniProt Q9VAZ3)"
uom = "%"
reading = 1.68

[[record]]
molecule = "Cc1cccc(C)c1"
target_system = "Drosophila OR98a (Drosophila melanogaster, UniProt Q9VAZ3)"
uom = "%"
reading = 0

[[record]]
molecule = "CCCCCCCCCCC"
target_system = "Drosophila OR98a (Drosophila melanogaster, UniProt Q9VAZ3)"
uom = "%"
reading = 0

[[record]]
molecule = "OCCc1ccccc1"
target_system = "Drosophila OR98a (Drosophila melanogaster, UniProt Q9VAZ3)"
uom = "%"
reading = 5

[[record]]
molecule = "CCCCCC(=O)CC"
target_system = "Drosophila OR98a (Drosophila melanogaster, UniProt Q9VAZ3)"
uom = "%"
reading = 0

[[record]]
molecule = "CCCCCCCCCC=O"
target_system = "Drosophila OR98a (Drosophila melanogaster, UniProt Q9VAZ3)"
uom = "%"
reading = 0

[[record]]
molecule = "CCCCOC(C)=O [butyl acetate]"
target_system = "Drosophila OR98a (Drosophila melanogaster, UniProt Q9VAZ3)"
uom = "%"
reading = 0

[[record]]
molecule = "CC1=CCC2CC1C2(C)C (stereo not shown)"
target_system = "Drosophila OR98a (Drosophila melanogaster, UniProt Q9VAZ3)"
uom = "%"
reading = 0

[[record]]
molecule = "CC(=O)c1ccccc1"
target_system = "Drosophila OR98a (Drosophila melanogaster, UniProt Q9VAZ3)"
uom = "%"
reading = 0

[[record]]
molecule = "CCCCC(C)O (stereo not shown)"
target_system = "Drosophila OR98a (Drosophila melanogaster, UniProt Q9VAZ3)"
uom = "%"
reading = 0

[[record]]
molecule = "Cc1cccc(O)c1"
target_system = "Drosophila OR98a (Drosophila melanogaster, UniProt Q9VAZ3)"
uom = "%"
reading = 4.61

[[record]]
molecule = "C=C1CCC2CC1C2(C)C (stereo not shown)"
target_system = "Drosophila OR98a (Drosophila melanogaster, UniProt Q9VAZ3)"
uom = "%"
reading = 17

[[record]]
molecule = "CCCCCCCCC(CO)CCCCCC (stereo not shown)"
target_system = "Drosophila OR98a (Drosophila melanogaster, UniProt Q9VAZ3)"
uom = "%"
reading = 14

[[record]]
molecule = "C=CC(C)(O)CCC=C(C)C (stereo not shown)"
target_system = "Drosophila OR98a (Drosophila melanogaster, UniProt Q9VAZ3)"
uom = "%"
reading = 0

[[record]]
molecule = "CC1=CCC23CC1C(C)(C)C2CCC3C (stereo not shown)"
target_system = "Drosophila OR98a (Drosophila melanogaster, UniProt Q9VAZ3)"
uom = "%"
reading = 9

[[record]]
molecule = "Cc1ccc(C)c(C)c1"
target_system = "Drosophila OR98a (Drosophila melanogaster, UniProt Q9VAZ3)"
uom = "%"
reading = 13

[[record]]
molecule = "CCOC(=O)CC [ethyl propionate]"
target_system = "Drosophila OR98a (Drosophila melanogaster, UniProt Q9VAZ3)"
uom = "%"
reading = 2

[[record]]
molecule = "Cc1ccccc1"
target_system = "Drosophila OR98a (Drosophila melanogaster, UniProt Q9VAZ3)"
uom = "%"
reading = 4

[[record]]
molecule = "Cc1ccccc1C"
target_system = "Drosophila OR98a (Drosophila melanogaster, UniProt Q9VAZ3)"
uom = "%"
reading = 0

[[record]]
molecule = "Cc1ccc(O)cc1"
target_system = "Drosophila OR98a (Drosophila melanogaster, UniProt Q9VAZ3)"
uom = "%"
reading = 2

[[record]]
molecule = "C=C1CC/C=C(\\C)CC[C@@H]2[C@@H]1CC2(C)C [(-)-trans-caryophyllene]"
target_system = "Drosophila OR98a (Drosophila melanogaster, UniProt Q9VAZ3)"
uom = "%"
reading = 6

[[record]]
molecule = "COc1cccc(OC)c1"
target_system = "Drosophila OR98a (Drosophila melanogaster, UniProt Q9VAZ3)"
uom = "%"
reading = 1.66

[[record]]
molecule = "CCCCCO"
target_system = "Drosophila OR98a (Drosophila melanogaster, UniProt Q9VAZ3)"
uom = "%"
reading = 2.81

[[record]]
molecule = "C=CC(O)C/C=C\\CC (stereo not shown)"
target_system = "Drosophila OR98a (Drosophila melanogaster, UniProt Q9VAZ3)"
uom = "%"
reading = 8

[[record]]
molecule = "C=C1CC[C@H]2O[C@]2(C)CC[C@@H]2[C@@H]1CC2(C)C [(-)-caryophyllene oxide]"
target_system = "Drosophila OR98a (Drosophila melanogaster, UniProt Q9VAZ3)"
uom = "%"
reading = 4

